Target: HRgpA-6H (Porphyromonas gingivalis) (UniProt P28784)
Assay: ELISA, coated HRgpA-6H
experimental-endpoint: Ratio OD(Variant)/OD(WT)
// keep it numeric: no unit symbol after the value

{"columns": ["binder", "experimental-endpoint", "value-reported"],
 "data": [
  ["KB001 mouse Fab VL T100Y (Fab, V domains shown) VH: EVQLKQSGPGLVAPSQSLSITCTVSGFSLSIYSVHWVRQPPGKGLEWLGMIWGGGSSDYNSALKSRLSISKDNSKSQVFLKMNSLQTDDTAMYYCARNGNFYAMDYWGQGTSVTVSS VL: QIVLTQSPAIMSASLGERVTMTCTASSSVSSSFLHWYQQKPGSSPQLWIYSTSNLASGVPARFSGSGSGTSYSLTISSMEAEDAATYYCHQYHHSPYIYYFGGGTKLEIK", "Ratio OD(Variant)/OD(WT)", 1.04]
]}

Let's switch to this binder now.
Task: Name the reported Ratio OD(Variant)/OD(WT) value associated with the binder KB001 mouse Fab VH S30M (Fab, V domains shown) VH: EVQLKQSGPGLVAPSQSLSITCTVSGFSLMIYSVHWVRQPPGKGLEWLGMIWGGGSSDYNSALKSRLSISKDNSKSQVFLKMNSLQTDDTAMYYCARNGNFYAMDYWGQGTSVTVSS VL: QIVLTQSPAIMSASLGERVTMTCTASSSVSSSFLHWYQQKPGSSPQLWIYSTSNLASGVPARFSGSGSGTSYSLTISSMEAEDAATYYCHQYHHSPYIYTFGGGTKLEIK
Result: 0.866

Values compiled from patent US20240400654A1.
